Assay: Solubility in selected aqueous solutions
Assay type: physicochemical
Conditions: aqueous with cosolvent or surfactant or cyclodextrin; No. 3: PBS/DMSO 95/5; pH 7.4, 25 °C
quantityKind: solubility

QUERY: In one line, give reported solubility of the entry C[C@H]1CCC/C=C/[C@@H]2C[C@H](O)C[C@H]2[C@H](OC(=O)/C=C/c2cccnc2)/C=C/C(=O)O1 .
RESULT: < 1000 µg/mL

---

Assay: Solubility in selected aqueous solutions
Type: physicochemical
Conditions: 25 °C, pH 7.4, aqueous with cosolvent or surfactant or cyclodextrin, No. 8: Saline/solutol HS-15 90/10; pH 7.4, 25 °C
quantityKind: solubility

QUERY: In one line, give reported solubility of the entry C[C@H]1CCC/C=C/[C@@H]2C[C@H](O)C[C@H]2[C@H](O)/C=C/C(=O)O1 [BFA, Brefeldin A, reference compound] .
RESULT: < 1000 µg/mL

---

Assay: Solubility in selected aqueous solutions
Assay type: physicochemical
Settings: aqueous with cosolvent or surfactant or cyclodextrin; No. 5: Saline/PEG400 80/20; pH 7.4, 25 °C
quantityKind: solubility

QUERY: In one line, give reported solubility of the entry C[C@H]1CCC/C=C/[C@@H]2C[C@H](O)C[C@H]2[C@H](OC(=O)/C=C/c2cccnc2)/C=C/C(=O)O1 .
RESULT: < 1000 µg/mL

---

Assay: Solubility in selected aqueous solutions
Type: physicochemical
Conditions: 25 °C, pH 7.4, aqueous with cosolvent or surfactant or cyclodextrin, No. 4: Saline/PEG400 95/5; pH 7.4, 25 °C
quantityKind: solubility

QUERY: In one line, give reported solubility of the entry C[C@H]1CCC/C=C/[C@@H]2C[C@H](O)C[C@H]2[C@H](O)/C=C/C(=O)O1 [BFA, Brefeldin A, reference compound] .
RESULT: < 1000 µg/mL

---

System: HuH-7 cells
Assay: MTT cell proliferation assay
Type: cell-based, human
Conditions: Homo sapiens; HuH-7, MTT, 72 h
quantityKind: IC50 (µM)
Dear colleague, please return just the value in µM, with no unit written.

QUERY: In one line, give reported IC50 of the entry C[C@H]1CCC/C=C/[C@@H]2C[C@H](O)C[C@H]2[C@H](OC(=O)/C=C/c2cccnc2)/C=C/C(=O)O1 .
RESULT: 0.51

---

Test: Solubility in selected aqueous solutions
Assay type: physicochemical
Conditions: 25 °C, pH 7.4, aqueous with cosolvent or surfactant or cyclodextrin, No. 6: Saline/DMSO/solutol HS-15 85/5/10; pH 7.4, 25 °C
quantityKind: solubility

QUERY: In one line, give reported solubility of the entry C[C@H]1CCC/C=C/[C@@H]2C[C@H](O)C[C@H]2[C@H](O)/C=C/C(=O)O1 [BFA, Brefeldin A, reference compound] .
RESULT: 1 to 1.5 mg/mL

---

Experiment: Solubility in selected aqueous solutions
Type: physicochemical
Details: 25 °C, pH 7.4, aqueous with cosolvent or surfactant or cyclodextrin, No. 2: Saline/DMSO 95/5; pH 7.4, 25 °C
quantityKind: solubility

QUERY: In one line, give reported solubility of the entry C[C@H]1CCC/C=C/[C@@H]2C[C@H](O)C[C@H]2[C@H](O)/C=C/C(=O)O1 [BFA, Brefeldin A, reference compound] .
RESULT: < 1 mg/mL

---

Test system: BxPC-3 cells
Experiment: MTT cell proliferation assay
Type: cell-based, human
Details: Homo sapiens; BxPC-3, MTT, 72 h
quantityKind: IC50 (nM)
Dear colleague, please return just the value in nM, with no unit written.

QUERY: In one line, give reported IC50 of the entry C[C@H]1CCC/C=C/[C@@H]2C[C@H](O)C[C@H]2[C@H](OC(=O)/C=C/c2cccnc2)/C=C/C(=O)O1 .
RESULT: 180

---

Experiment: Solubility in selected aqueous solutions
Type: physicochemical
Conditions: aqueous with cosolvent or surfactant or cyclodextrin; No. 4: Saline/PEG400 95/5; pH 7.4, 25 °C
quantityKind: solubility

QUERY: In one line, give reported solubility of the entry C[C@H]1CCC/C=C/[C@@H]2C[C@H](O)C[C@H]2[C@H](OC(=O)/C=C/c2cccnc2)/C=C/C(=O)O1 .
RESULT: < 1000 µg/mL

---

Catalogue of compounds with associated solubility
Assay: Solubility in selected aqueous solutions
Type: physicochemical
Settings: Saline or PBS used alone
Excerpt: The problem of poor water solubility is one of the factors that seriously restricts the preclinical application of BFA. Therefore, from the perspective of pharmaceutics, it is of great application value to explore safe and effective methods to improve its solubility. Based on the previous screening of commonly used solvents, solubilizers and co-solvents for BFA and its derivatives, we explored the solubility of CHNQD-01281, which was compared and assessed in selected aqueous solutions (Table 1). […]

| compound | solubility |
| --- | --- |
| C[C@H]1CCC/C=C/[C@@H]2C[C@H](O)C[C@H]2[C@H](OC(=O)/C=C/c2cccnc2)/C=C/C(=O)O1 [CHNQD-01281] | < 1000 µg/mL |

QUERY: In one line, give reported solubility of the entry C[C@H]1CCC/C=C/[C@@H]2C[C@H](O)C[C@H]2[C@H](O)/C=C/C(=O)O1 [BFA, Brefeldin A, reference compound] .
RESULT: < 1000 µg/mL

All figures here come from paper PMC11358582.
